test: qHTS Assay for Inhibitors of Hepatitis C Virus (HCV); settings: Huh7.5.1 HCVcc-Cre infection, luciferase reporter, 44 h; series mostly up to 41.8 µM
Among all 340,000 compounds or so, about 12,000 (3.5%) were called active. About 18% were inconclusive and are not listed. Calls follow the shape of the dose curve; as a rule, active = well fitted inhibition curve with a large enough effect; inconclusive = small, poorly fitted or top-dose-only effect, or another doubt; inactive = no such curve, though single readings can be large or run the other way. Only a selection was taken, and actives are over-represented in it overall.
I would appreciate it if you answered using one of these outcomes: active, inactive

Record excerpt, results attached:
COc1c(C)c2c(c(O)c1C/C=C(\C)CCC(=O)O)C(=O)OC2 : active
CC(Oc1ccc2c(-c3ccccc3)cc(=O)oc2c1)C(=O)NC(Cc1c[nH]c2ccccc12)C(=O)O (centres undefined) : inactive
CO[C@@H]1[C@@H](OC(N)=O)[C@@H](O)C(Oc2ccc3c(O)c(NC(=O)c4ccc(O)c(CC=C(C)C)c4)c(=O)oc3c2C)OC1(C)C (some centres undefined) : inactive
C[C@@H]1CN([C@H](C)CO)C(=O)c2cc(NC(=O)NC3CCCCC3)ccc2O[C@H]1CN(C)S(C)(=O)=O : inactive
COc1cc(/C=C/C(=O)OCC(=O)NCCCc2ccccc2)ccc1O : inactive

Input: What did this assay record as the result for CC(NC(=O)c1ccccc1)C(=O)OCC(=O)Nc1cccc(S(=O)(=O)N2CCCC2)c1 (centres undefined) ?
Output: inactive

Input: How did this test come out for C[C@H]1CN([C@@H](C)CO)C(=O)Cc2cc(NC(=O)Cc3ccccc3)ccc2O[C@H]1CN(C)S(=O)(=O)c1cccs1 ?
Output: inactive

Input: What classification did O=C(Nc1cccc(Cl)c1)C1CCCN(c2cnccn2)C1 (centres undefined) end up with in this test?
Output: inactive

Input: I would be grateful if you could indicate the recorded call for Cc1nnc(N/N=C/c2ccccn2)[nH]c1=O .
Output: active

====

experiment: qHTS Assay for Inhibitors of Hepatitis C Virus (HCV); settings: Huh7.5.1 HCVcc-Cre infection, luciferase reporter, 44 h; series mostly up to 41.8 µM; also: potency is read from the fitted curve at half-maximal effect
Out of some 340,000 compounds screened, about 12,000 (3.5%) were called active. Roughly 18% stayed inconclusive and do not appear here. The entries come from a sample that favours actives as a whole.
measure.name: Potency

Below, 5 compounds whose answers are already recorded.
CCOC(=O)c1c(NC(=S)Nc2ccccc2C)sc2c1CCC2 : inactive
O=C(Nc1ccccc1)N1CCC(C(=O)N2CCN(Cc3ccccc3)CC2)CC1 : inactive
Cc1cccc(C)c1OC(=O)CSc1nnc(-c2ccccc2)o1 : inactive
CN(C)c1ccc(/C=N/Nc2cc(N3CCOCC3)nc(N3CCOCC3)n2)cc1 : 3.98 µM (active)
O=C(NCCc1ccccc1)C1CCN(S(=O)(=O)c2ccc(Br)s2)CC1 : inactive

Input: What does the record list as Potency for C=CC[C@@H](CC(=O)N[C@@H](CO)Cc1ccccc1)C(=O)NCCOC(=O)[C@@H](CC=C)CC(=O)OC(C)(C)C ?
Output: inactive

Input: I'd like to know its Potency. The compound in question is CCOc1ccc(-c2c(C)n([O-])c3c([n+]2=O)CCCC3)cc1
Output: inactive

Input: Quick check: Potency of CCC1(C)Cc2c(sc3nnn(CC(=O)Nc4ccc(Cl)cc4)c(=O)c23)CO1 (stereo unspecified) ?
Output: 11.2 µM (active)

Input: Name the recorded Potency for CC(C)CN(C(=O)COC(=O)c1ccc2ccccc2c1)c1c(N)n(Cc2ccccc2)c(=O)[nH]c1=O .
Output: inactive

Input: Using the record for COC(=O)Cc1nc2c(N)nc(N)nc2[nH]c1=O , report its Potency.
Output: inactive

Input: Which Potency is reported for this compound? COc1ccccc1OCCn1c(SCC(N)=O)nc2ccccc21
Output: inactive

Input: I would be grateful if you could share the reported Potency for CCCn1cc(SCC(N)=O)c2ccccc21 .
Output: inactive

Input: Which Potency is reported for this compound? Oc1c(C(c2ccccn2)N2CCOCC2)ccc2cccnc12 (stereo unspecified)
Output: 3.55 µM (active)

====

experiment: qHTS Assay for Inhibitors of Hepatitis C Virus (HCV); settings: Huh7.5.1 HCVcc-Cre infection, luciferase reporter, 44 h; series mostly up to 41.8 µM
Out of some 340,000 compounds screened, about 12,000 (3.5%) were called active. Inconclusive results (about 18%) are left out. Calls come from the whole dose curve; as a rule, active = well fitted inhibition curve with a large enough effect; inconclusive = small, poorly fitted or top-dose-only effect, or another doubt; inactive = no such curve, though single readings can be large or run the other way. This excerpt belongs to a sample that is enriched for actives.
Pick one and only one: active, inactive

Use the examples below as a reference point.
O=C(CC1SCCNC1=O)Nc1ccc(Cl)c(Cl)c1 (stereo unspecified) : inactive
CN(CC(=O)Nc1ccc(Cl)c(C(F)(F)F)c1)C(=O)CCC(=O)c1ccccc1 : active
CN(C)c1ccc(CSc2ccccc2)cc1 : inactive
Cc1cccc(C)c1NC(=O)CN(C)C(=O)CCC(=O)c1ccccc1 : inactive
CN1CCC(N(C)C(=O)c2ccc(Cl)c(S(=O)(=O)Nc3ccc(Cl)cc3)c2)CC1 : inactive

# next compound below
Input: What did this assay record as the result for c1ccc(Cc2cc[n+](Cc3ccccc3)cc2)cc1 ?
Output: inactive

====

assay: qHTS Assay for Inhibitors of Hepatitis C Virus (HCV); conditions: Huh7.5.1 HCVcc-Cre infection, luciferase reporter, 44 h; series mostly up to 41.8 µM
About 12,000 (3.5%) of roughly 340,000 compounds were called active. Another 18% or so got no clear call; they are omitted. Calls come from the whole dose curve; as a rule, active = well fitted inhibition curve with a large enough effect; inconclusive = small, poorly fitted or top-dose-only effect, or another doubt; inactive = no such curve, though single readings can be large or run the other way. The sample holds actives, similar compounds and a random draw of the others, so the mix is not that of the screen.
Tick one outcome: Yes (active), No (inactive)

Use the examples below as a reference point.
O=C(NNC(=O)c1ccc(-c2ccccc2)cc1)Nc1ccccc1 : No
O=C(Nc1nc(-c2ccncc2)cs1)C1COc2ccccc2O1 (stereo not drawn) : No
Cc1cc(C(=O)NNC(=O)c2ccccc2O)c(C)o1 : No
O=C(N/N=C/c1ccc(OC(=O)c2ccccc2Cl)cc1)c1ccc(O)cc1 : No
COc1ccc(S(=O)(=O)Nc2ccc(S(=O)(=O)N3CCCCC3)cc2)cc1OC : No

// switching to the query compound
Input: Which result was noted for this compound in the test: CCCC(CNC(=O)COC(=O)C1=NNC(=O)CC1)c1ccc(Cl)cc1Cl (stereo not drawn)
Output: No

====

Assay: qHTS Assay for Inhibitors of Hepatitis C Virus (HCV)
Conditions: Huh7.5.1 HCVcc-Cre infection, luciferase reporter, 44 h; series mostly up to 41.8 µM
Source text: Hepatitis C virus (HCV) infects about 200 million people in the world. Many infected people progress to chronic liver disease including cirrhosis with a risk of developing liver cancer. To date, there is no effective vaccine for hepatitis C. Current therapy based on interferon is only effective in about half of the patients and is associated with significant adverse effects. The fraction of people with HCV who can complete a successful treatment is estimated to be no more than 10 percent. […]
Among all 340,000 compounds or so, about 12,000 (3.5%) were called active. Roughly 18% stayed inconclusive and do not appear here. Calls come from the whole dose curve; as a rule, active = well fitted inhibition curve with a large enough effect; inconclusive = small, poorly fitted or top-dose-only effect, or another doubt; inactive = no such curve, though single readings can be large or run the other way. The entries come from a sample that favours actives as a whole.
API: response.call in t for active, f for inactive

Input: Which outcome did this test record for the compound COc1ccc(C(=O)Nc2ccc(N3CCC(C)CC3)cc2)cc1Br ?
Output: f

Input: I would be grateful if you could indicate the recorded call for COc1ccc(C2CC(c3cccs3)=NN2C(=O)CCC(=O)O)cc1OC (stereo not given) .
Output: f

Input: // param item: COc1cccc(C(=O)Nc2ccc(N3CCCC3)cc2)c1 ; yields the recorded call
Output: t

Input: Give the logged outcome of this assay for the following compound: COc1ccc(CC(=O)N/N=C(\C)c2ccccn2)cc1
Output: f

Input: Which outcome was entered for the compound COc1cccc(C(=O)Nc2ccc(N3CCN(C(=O)c4ccco4)CC3)cc2)c1 in this test?
Output: f

====

test: qHTS Assay for Inhibitors of Hepatitis C Virus (HCV); conditions: Huh7.5.1 HCVcc-Cre infection, luciferase reporter, 44 h; series mostly up to 41.8 µM; also: potency is read from the fitted curve at half-maximal effect
Among all 340,000 compounds or so, about 12,000 (3.5%) were called active. Roughly 18% stayed inconclusive and do not appear here. This is one part of a sample in which actives are shown more often than they occur.
measure.name: Potency

# example entries with known answers
Cc1ccc(-n2nc3c(=O)n(C(C)C(=O)NCc4ccc5c(c4)OCO5)nc(C)c3c2C)cc1 (configuration not stated) : 11.2 µM (active)
COc1cccc(/C=N/Nc2ccc(S(=O)(=O)Nc3ccccc3C(=O)O)cc2[N+](=O)[O-])c1O : inactive
O=C(CN1CCN(c2ccccn2)CC1)Nc1ccc(Br)cc1 : inactive
CCOC(=O)c1ccc(NC(=O)CS(=O)(=O)c2cn(CC)c3ccccc23)cc1 : 14.1 µM (active)
Cc1nc(Cl)cc(N/N=C/c2ccccc2)n1 : inactive
COc1ccccc1/C=N/Nc1nc(C)c(C(C)=O)s1 : inactive
O=[N+]([O-])c1ccc(N2CCN(S(=O)(=O)c3ccc4ccccc4c3)CC2)cc1NCc1ccco1 : inactive
COc1cccc(/C=N/Nc2cc(C)nc(-c3ccccc3O)n2)c1O : 12.6 µM (active)

Input: Look at this molecule and give its reported Potency. CCc1ccc(-c2nn(-c3ccccc3C)cc2C(=O)N2CCN(C3CCS(=O)(=O)C3)CC2)cc1 (configuration not stated)
Output: inactive

Input: Entry Cc1ccc(NC(=O)C(C)Sc2nnc(C3CC3)n2C2CC2)cc1S(=O)(=O)N1CCOCC1 (configuration not stated) has what Potency?
Output: inactive

Input: Quick check: Potency of Oc1ccc(/C=N/Nc2nc(-c3ccccc3F)nc3ccccc23)c(O)c1 ?
Output: 11.2 µM (active)

Input: Potency for CCc1ccc(-c2nn(-c3ccccc3)cc2CSC(=N)N)cc1 ?
Output: 10 µM (active)

Input: Quick check: Potency of CC(=O)c1c(C)[nH]c(C(=O)COc2ccc3c(C)cc(=O)oc3c2)c1C ?
Output: inactive

Input: // returns reported Potency for input O=C(OCC(=O)N1CCCCCC1)c1ccc(Br)c(S(=O)(=O)N2CCOCC2)c1
Output: inactive

Input: Given the molecule Fc1ccc(/C=N/Nc2nc(-c3cccnc3)nc3ccccc23)cc1 , what is its reported Potency?
Output: inactive

Input: Which value of Potency has been reported for Cc1cc(N/N=C/c2ccccc2F)c2ccccc2n1 in the records?
Output: inactive

Input: # input molecule: Cc1c(Cc2ccccc2)c(=O)oc2cc(OCC(N)=O)ccc12 ; wanted: its Potency
Output: inactive
